procedure.details: Cycloheximide Counterscreen for Small Molecule Inhibitors of Shiga Toxin; note: read at 38.3 µM for the half of the compounds with a filed dose; 0% is about no effect
stated.conditions: cell reporter, cycloheximide protein synthesis inhibition counterscreen; hits give high values
Screen size: about 300,000 compounds; about 37,000 (12%) were called active. The sample as a whole holds a higher share of actives than the screen did.
Give max response for every item shown.

Take a look at these entries with their results.
* O=C(COC(=O)c1cc(=O)[nH]c2ccccc12)Nc1nc(-c2cccc(Br)c2)cs1 | 0.762% (inactive)
* COc1cccc(CNc2nc3nc4c(c(=O)n3[nH]2)CCC4)c1 | -3.21% (inactive)
* CCc1cc2c(=O)n(-c3ccccc3)c(SCC(=O)O)nc2s1 | -0.568% (inactive)
* c1ccc(-c2cc(-c3nnc4sc(-c5ccccn5)nn34)[nH]n2)cc1 | 5.86% (inactive)
* CCOc1cccc(-c2nn3c(-c4ccccn4)nnc3s2)c1 | 22.6% (active)

Now look at this entry.
Input: Item CCOC(=O)N1CCN(C(=O)COc2ccc(Cl)cc2C)CC1 has what recorded max response?
Output: -3.61% (inactive)

Provenance of the data: PubChem BioAssay AID2314
